Cited source: paper PMC4956467

biological target: A3Fc-CD2 Y314A (human, UniProt Q9HC16 197-221+Q8IUX4:220-373, Y314A;internal_change); assay: BLI
metric: pKd
Remember the convention: pKd equals -log10 of concentration in molar.

*Q* Note pKd for the binder shown: TCCCTCAGACCCTTTTAGTCAGTGTGGAAAATCTCTAGCAGT (ssDNA) [42-mer ssDNA, viral U5 end of 3'-LTR]
*A* 4.17
